Ref: patent US20070167452A1

- tested.system: UniProtKB Q12809
- Sequence (Q12809 whole entry): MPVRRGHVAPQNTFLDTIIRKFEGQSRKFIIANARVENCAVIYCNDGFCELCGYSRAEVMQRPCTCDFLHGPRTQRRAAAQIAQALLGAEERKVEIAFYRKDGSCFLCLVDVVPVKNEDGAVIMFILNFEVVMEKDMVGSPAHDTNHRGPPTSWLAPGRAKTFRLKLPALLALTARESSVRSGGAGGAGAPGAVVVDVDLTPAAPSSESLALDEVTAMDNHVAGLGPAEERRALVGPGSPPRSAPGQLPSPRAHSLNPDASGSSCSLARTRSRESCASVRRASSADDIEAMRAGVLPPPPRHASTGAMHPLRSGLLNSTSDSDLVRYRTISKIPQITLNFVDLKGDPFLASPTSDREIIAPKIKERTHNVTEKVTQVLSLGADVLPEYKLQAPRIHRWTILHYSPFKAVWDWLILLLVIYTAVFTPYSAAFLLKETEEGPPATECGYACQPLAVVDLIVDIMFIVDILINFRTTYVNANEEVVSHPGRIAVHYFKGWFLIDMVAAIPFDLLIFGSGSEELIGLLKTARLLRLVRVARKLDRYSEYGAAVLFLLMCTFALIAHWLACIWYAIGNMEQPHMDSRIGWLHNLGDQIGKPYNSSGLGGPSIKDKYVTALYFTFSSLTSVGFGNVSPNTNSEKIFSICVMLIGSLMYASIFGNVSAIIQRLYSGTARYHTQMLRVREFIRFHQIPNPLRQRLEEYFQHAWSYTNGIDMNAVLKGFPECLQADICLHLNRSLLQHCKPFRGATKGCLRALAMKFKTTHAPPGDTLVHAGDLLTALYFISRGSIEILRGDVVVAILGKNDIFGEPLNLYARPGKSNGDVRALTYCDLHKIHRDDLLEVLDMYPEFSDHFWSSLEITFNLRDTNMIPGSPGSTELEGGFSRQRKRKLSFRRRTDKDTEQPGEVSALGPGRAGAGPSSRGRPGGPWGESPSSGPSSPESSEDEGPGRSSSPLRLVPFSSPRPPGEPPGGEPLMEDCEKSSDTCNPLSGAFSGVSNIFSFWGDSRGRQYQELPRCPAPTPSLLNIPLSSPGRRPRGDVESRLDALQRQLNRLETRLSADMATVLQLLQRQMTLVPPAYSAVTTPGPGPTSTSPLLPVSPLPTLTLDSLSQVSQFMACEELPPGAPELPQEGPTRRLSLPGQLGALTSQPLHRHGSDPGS
- assay.overview: Human Dofetilide Binding Assay
assay.readout: IC50

Short answer on UniProtKB Q12809 for O=C(NC[C@H]1CC[C@@H](COc2ccc(Cl)cc2)CO1)c1cn[nH]c1 , IC50: > 30 µM

Short answer on UniProtKB Q12809 for O=C(NC[C@H]1CC[C@@H](COc2ccccc2)CC1)c1cc(F)c(O)c(F)c1 , IC50: > 100 µM

Short answer on UniProtKB Q12809 for O=C(NC[C@H]1CC[C@@H](OCCOc2ccccc2)CC1)c1ccc(O)cc1 , IC50: 40.8 µM

----------
Recorded pIC50 by entry
- tested.system: NR2B receptor (Rattus norvegicus, UniProt P35439+Q00960)
- Construct: Membranes were prepared by homogenization of forebrain of male CD rats
- Sequence (Q00960 27-1482, other chains not shown): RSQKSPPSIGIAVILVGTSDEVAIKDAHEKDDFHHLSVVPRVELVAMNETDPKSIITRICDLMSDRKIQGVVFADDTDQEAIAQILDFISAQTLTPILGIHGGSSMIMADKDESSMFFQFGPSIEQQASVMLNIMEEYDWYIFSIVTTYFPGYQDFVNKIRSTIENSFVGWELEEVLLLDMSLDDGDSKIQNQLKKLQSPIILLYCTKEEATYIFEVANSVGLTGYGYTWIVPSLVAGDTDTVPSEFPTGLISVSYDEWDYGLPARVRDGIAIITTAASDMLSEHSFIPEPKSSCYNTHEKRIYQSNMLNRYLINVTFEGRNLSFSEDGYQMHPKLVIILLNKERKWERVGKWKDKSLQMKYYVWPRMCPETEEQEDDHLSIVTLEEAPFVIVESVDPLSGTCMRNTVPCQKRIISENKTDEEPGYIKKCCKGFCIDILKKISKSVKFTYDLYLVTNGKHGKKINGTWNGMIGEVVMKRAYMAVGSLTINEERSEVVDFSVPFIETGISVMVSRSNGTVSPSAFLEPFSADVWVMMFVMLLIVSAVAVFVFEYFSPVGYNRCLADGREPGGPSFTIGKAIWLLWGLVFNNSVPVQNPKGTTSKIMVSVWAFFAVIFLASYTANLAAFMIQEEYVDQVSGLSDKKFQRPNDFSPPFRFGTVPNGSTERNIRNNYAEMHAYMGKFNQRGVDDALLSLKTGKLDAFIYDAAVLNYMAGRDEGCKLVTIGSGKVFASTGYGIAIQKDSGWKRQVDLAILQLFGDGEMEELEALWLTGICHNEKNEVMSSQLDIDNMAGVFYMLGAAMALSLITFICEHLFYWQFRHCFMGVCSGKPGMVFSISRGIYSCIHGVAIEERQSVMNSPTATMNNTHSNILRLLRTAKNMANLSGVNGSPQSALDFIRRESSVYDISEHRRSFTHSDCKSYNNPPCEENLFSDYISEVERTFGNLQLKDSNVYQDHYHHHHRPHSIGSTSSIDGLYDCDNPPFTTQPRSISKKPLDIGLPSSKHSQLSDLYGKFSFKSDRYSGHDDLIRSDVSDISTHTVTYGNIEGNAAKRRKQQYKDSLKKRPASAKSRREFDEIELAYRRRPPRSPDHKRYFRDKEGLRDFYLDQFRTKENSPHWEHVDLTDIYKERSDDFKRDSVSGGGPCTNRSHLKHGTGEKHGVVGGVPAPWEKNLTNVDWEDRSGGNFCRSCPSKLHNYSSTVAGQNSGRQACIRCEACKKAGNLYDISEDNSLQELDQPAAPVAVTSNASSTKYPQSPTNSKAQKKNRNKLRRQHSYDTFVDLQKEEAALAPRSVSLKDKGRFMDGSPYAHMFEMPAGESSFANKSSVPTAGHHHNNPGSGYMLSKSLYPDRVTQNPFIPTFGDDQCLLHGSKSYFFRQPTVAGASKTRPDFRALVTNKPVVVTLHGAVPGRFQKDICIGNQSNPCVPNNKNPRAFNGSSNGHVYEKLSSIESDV
- assay.overview: NR2B Binding Assay
- conditions: forebrain P2 membranes of male CD rats; 5 nM [3H] NR2B ligand
FYI, pIC50 means -log10 of a concentration in mol per litre.

Some solved entries appear below for comparison.
>>> df
                                        smi  assay_readout  quantitative_result
0  O=C(NC[C@]1(O)CC[C@H](Cc2ccc(F)cc2)CC1)c1ccc(O)cc1          pIC50                 8.02
1  O=C(NC[C@@H]1CC[C@H](COCc2ccccc2)CO1)c1ccc(O)cc1          pIC50                 7.98
2  O=C(NC[C@H]1CC[C@@H](CCOc2ccccc2)CC1)c1cc(F)c(O)c(F)c1          pIC50                 7.89

The record that follows has no pIC50 shown yet.
The compound O=C(NC[C@H]1CC[C@@H](COc2ccccc2)CC1)c1cc(F)c(O)c(F)c1 showed pIC50 equal to 7.75

----------
Recorded melting point by entry
Please state the figure in °C; there is no need to write the unit.

                                   molecule  unit_abbreviation  quantitative_result
0  O=C(NC[C@H]1CC[C@@H](CCOc2ccccc2)CC1)c1ccc(O)nc1 [Example 84]                 °C                167.6
1  O=C(NC[C@]1(O)CC[C@H](COc2ccccc2)CC1)c1ccc(O)cc1 [Example 8]                 °C                189.5
2  O=C(NC[C@H]1CC[C@@H](CCOc2ccccc2)CC1)c1ccc2[nH]ncc2c1 [Example 103]                 °C                144.5
3  O=C(NC[C@H]1CC[C@@H](CCOc2ccccc2)CC1)c1ccc2[nH]c(=O)sc2c1 [Example 101]                 °C                159.9
4  O=C(NC[C@H]1CC[C@@H](Oc2ccc(F)cc2)CC1)c1ccc(O)cc1 [Example 54]                 °C                170.5
5  O=C(NC[C@H]1CC[C@@H](CCOc2ccccc2)CC1)c1ccn[nH]1 [Example 85]                 °C                130.5
6  O=C(NC[C@]1(O)CC[C@H](CCOc2ccccc2)CC1)c1ccc(O)cc1 [Example 26]                 °C                168.7
7  O=C(NC[C@]1(O)CC[C@H](COCc2cccc(F)c2)CC1)c1ccc(O)cc1 [Example 23]                 °C                167.6
8  O=C(NC[C@H]1CC[C@@H](COc2ccccc2F)CC1)c1cn[nH]c1 [Example 100]                 °C                139.8
9  O=C(NC[C@]1(O)CC[C@H](CCOc2cccc(F)c2)CC1)c1ccc(O)cc1 [Example 28]                 °C                134.5

The molecule Nc1n[nH]cc1C(=O)NC[C@H]1CC[C@@H](CCOc2ccccc2)CC1 [Example 102] showed melting point equal to 129.3

The molecule O=C(NC[C@]1(O)CC[C@H](CCOc2ccccc2F)CC1)c1ccc(O)cc1 [Example 27] showed melting point equal to 178.9

The molecule O=C(NC[C@H]1CC[C@@H](CCOc2ccccc2)CC1)c1c[nH]nn1 [Example 104] showed melting point equal to 141.2

The molecule COc1cccc(OC[C@H]2CC[C@@](O)(CNC(=O)c3ccc(O)cc3)CC2)c1 [Example 20] showed melting point equal to 190.3

The molecule O=C(NC[C@]1(O)CC[C@H](COc2ccc(F)cc2)CC1)c1ccc(O)c(F)c1 [Example 66] showed melting point equal to 181.6

The molecule O=C(NC[C@]1(O)CC[C@H](COc2cc(F)cc(F)c2)CC1)c1ccc(O)cc1 [Example 13] showed melting point equal to 102.4

The molecule Cc1cccc(OC[C@H]2CC[C@@](O)(CNC(=O)c3ccc(O)cc3)CC2)c1 [Example 18] showed melting point equal to 201.4

The molecule O=C(NC[C@]1(O)CC[C@H](COCc2ccccc2)CC1)c1ccc(O)c(F)c1 [Example 60] showed melting point equal to 162.5
